Target: T1, IL10Rα/IL2Rγ receptor (human, UniProt Q13651 22-578; P31785 23-369)
T1 sequence (looked up) 1: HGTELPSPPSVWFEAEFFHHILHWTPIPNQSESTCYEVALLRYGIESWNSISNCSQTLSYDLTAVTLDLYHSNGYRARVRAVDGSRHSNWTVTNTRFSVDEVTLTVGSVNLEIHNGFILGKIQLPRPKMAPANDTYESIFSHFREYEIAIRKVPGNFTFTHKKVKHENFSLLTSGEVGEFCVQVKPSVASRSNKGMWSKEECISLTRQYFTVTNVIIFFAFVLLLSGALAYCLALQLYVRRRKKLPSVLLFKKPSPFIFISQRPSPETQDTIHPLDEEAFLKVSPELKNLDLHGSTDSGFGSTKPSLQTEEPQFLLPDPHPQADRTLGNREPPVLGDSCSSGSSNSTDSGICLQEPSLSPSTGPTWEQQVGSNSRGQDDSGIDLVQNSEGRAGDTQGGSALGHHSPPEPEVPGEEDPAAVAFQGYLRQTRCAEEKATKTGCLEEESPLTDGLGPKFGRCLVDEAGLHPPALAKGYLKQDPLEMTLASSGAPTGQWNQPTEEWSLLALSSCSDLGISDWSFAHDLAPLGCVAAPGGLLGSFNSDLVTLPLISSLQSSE
T1 sequence (looked up) 2: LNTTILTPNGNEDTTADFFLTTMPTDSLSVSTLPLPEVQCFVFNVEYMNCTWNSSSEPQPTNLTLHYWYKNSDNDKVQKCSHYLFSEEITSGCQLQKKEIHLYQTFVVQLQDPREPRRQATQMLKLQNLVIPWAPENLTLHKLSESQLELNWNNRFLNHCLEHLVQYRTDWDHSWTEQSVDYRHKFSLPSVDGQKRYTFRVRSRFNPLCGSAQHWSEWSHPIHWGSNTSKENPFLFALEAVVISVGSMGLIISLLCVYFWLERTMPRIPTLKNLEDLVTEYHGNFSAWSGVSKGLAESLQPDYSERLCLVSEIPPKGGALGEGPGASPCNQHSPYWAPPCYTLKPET
Assay: cell-based or functional assay
observable: pSTAT3 MFI, Monocytes, 0.01 nM (unstimulated 2116) (MFI)
Entry rule: numbers only, all in MFI.

Take a look at these entries with their results.
binder="DR471(DR241-DR231) (bispecific antibody) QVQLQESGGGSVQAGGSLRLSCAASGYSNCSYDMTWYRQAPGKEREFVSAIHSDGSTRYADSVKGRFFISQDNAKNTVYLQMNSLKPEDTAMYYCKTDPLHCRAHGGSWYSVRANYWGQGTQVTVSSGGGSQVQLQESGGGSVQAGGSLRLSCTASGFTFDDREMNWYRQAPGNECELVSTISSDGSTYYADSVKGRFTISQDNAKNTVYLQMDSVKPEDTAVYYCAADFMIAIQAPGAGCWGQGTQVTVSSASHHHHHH" value_measured=2000
binder="DR395(DR229-DR239) (bispecific antibody) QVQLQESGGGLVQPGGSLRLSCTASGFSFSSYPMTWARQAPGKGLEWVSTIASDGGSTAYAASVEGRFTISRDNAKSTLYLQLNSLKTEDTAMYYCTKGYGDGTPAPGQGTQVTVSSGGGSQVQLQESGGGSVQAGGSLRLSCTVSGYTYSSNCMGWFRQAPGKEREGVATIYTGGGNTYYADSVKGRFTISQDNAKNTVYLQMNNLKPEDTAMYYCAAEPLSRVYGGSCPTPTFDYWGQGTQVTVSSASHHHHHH" value_measured=2020
binder="DR441(DR236-DR231) (bispecific antibody) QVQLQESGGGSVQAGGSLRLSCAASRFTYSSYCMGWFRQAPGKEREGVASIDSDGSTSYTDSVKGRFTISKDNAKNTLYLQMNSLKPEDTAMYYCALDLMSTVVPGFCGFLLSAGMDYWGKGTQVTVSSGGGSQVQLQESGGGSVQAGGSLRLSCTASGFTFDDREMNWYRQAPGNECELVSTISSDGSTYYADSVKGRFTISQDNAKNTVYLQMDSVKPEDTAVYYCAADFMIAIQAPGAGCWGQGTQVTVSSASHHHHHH" value_measured=2030

# input for lookup
Answer with the recorded pSTAT3 MFI, Monocytes, 0.01 nM (unstimulated 2116) of DR465(DR240-DR231) (bispecific antibody) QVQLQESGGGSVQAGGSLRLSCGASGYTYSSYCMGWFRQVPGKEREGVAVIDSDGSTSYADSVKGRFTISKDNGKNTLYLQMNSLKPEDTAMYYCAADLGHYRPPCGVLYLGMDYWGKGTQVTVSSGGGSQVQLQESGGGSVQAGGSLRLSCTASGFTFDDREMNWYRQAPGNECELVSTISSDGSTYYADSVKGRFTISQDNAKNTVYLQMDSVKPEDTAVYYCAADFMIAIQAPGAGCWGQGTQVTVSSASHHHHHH only.
1950
